Where do these numbers come from? They come from the NIST ThermoML archive (doi:10.1016/j.jct.2012.03.015).

activity coefficient overview
- ASSAY_NOTES: activity coefficient (dimensionless); of the first substance listed, at infinite dilution; xn = mol fraction of the nth substance listed
- RECORDED_CONDITIONS: 318.15 K; 101 kPa; Liquid; Chromatography; x1 = 0

COMPOUND: CC(C)(C)O [2-methylpropan-2-ol] + COCC[N+]1(C)CCCC1.O=S(=O)([N-]S(=O)(=O)C(F)(F)F)C(F)(F)F
activity coefficient: 1.92

COMPOUND: CC1CCCCC1 [methylcyclohexane] + COCC[N+]1(C)CCCC1.O=S(=O)([N-]S(=O)(=O)C(F)(F)F)C(F)(F)F
activity coefficient: 15.4

COMPOUND: c1ccccc1 [benzene] + COCC[N+]1(C)CCCC1.O=S(=O)([N-]S(=O)(=O)C(F)(F)F)C(F)(F)F
activity coefficient: 1.03

COMPOUND: COC(C)=O [methyl ethanoate] + COCC[N+]1(C)CCCC1.O=S(=O)([N-]S(=O)(=O)C(F)(F)F)C(F)(F)F
activity coefficient: 0.71

---

- ASSAY_NOTES: activity coefficient (dimensionless); of the first substance listed, at infinite dilution; xn = mol fraction of the nth substance listed
- RECORDED_CONDITIONS: 348.15 K; 101 kPa; Liquid; Chromatography; x1 = 0
# activity coefficient >= 2 gives t, anything below gives f

MOLECULE: CCCCCCCCCC [decane] + COCC[N+]1(C)CCCC1.O=S(=O)([N-]S(=O)(=O)C(F)(F)F)C(F)(F)F
CATEGORY: t
--
MOLECULE: C1COCCO1 [1,4-dioxane] + COCC[N+]1(C)CCCC1.O=S(=O)([N-]S(=O)(=O)C(F)(F)F)C(F)(F)F
CATEGORY: f
--
MOLECULE: COC(C)(C)C [2-methoxy-2-methylpropane] + COCC[N+]1(C)CCCC1.O=S(=O)([N-]S(=O)(=O)C(F)(F)F)C(F)(F)F
CATEGORY: t
--
MOLECULE: CCCCO [butan-1-ol] + COCC[N+]1(C)CCCC1.O=S(=O)([N-]S(=O)(=O)C(F)(F)F)C(F)(F)F
CATEGORY: t
--
MOLECULE: COC(C)=O [methyl ethanoate] + COCC[N+]1(C)CCCC1.O=S(=O)([N-]S(=O)(=O)C(F)(F)F)C(F)(F)F
CATEGORY: f
--
MOLECULE: CCC[N+](=O)[O-] [1-nitropropane] + COCC[N+]1(C)CCCC1.O=S(=O)([N-]S(=O)(=O)C(F)(F)F)C(F)(F)F
CATEGORY: f
--
MOLECULE: CCCOCCC [dipropyl ether] + COCC[N+]1(C)CCCC1.O=S(=O)([N-]S(=O)(=O)C(F)(F)F)C(F)(F)F
CATEGORY: t
--
MOLECULE: CCO [ethanol] + COCC[N+]1(C)CCCC1.O=S(=O)([N-]S(=O)(=O)C(F)(F)F)C(F)(F)F
CATEGORY: f
--
MOLECULE: C=Cc1ccccc1 [styrene] + COCC[N+]1(C)CCCC1.O=S(=O)([N-]S(=O)(=O)C(F)(F)F)C(F)(F)F
CATEGORY: f
--
MOLECULE: c1ccncc1 [pyridine] + COCC[N+]1(C)CCCC1.O=S(=O)([N-]S(=O)(=O)C(F)(F)F)C(F)(F)F
CATEGORY: f
--
MOLECULE: CC(C)CC(C)(C)C [2,2,4-trimethylpentane] + COCC[N+]1(C)CCCC1.O=S(=O)([N-]S(=O)(=O)C(F)(F)F)C(F)(F)F
CATEGORY: t
--
MOLECULE: CCC(C)O (centres undefined) [butan-2-ol] + COCC[N+]1(C)CCCC1.O=S(=O)([N-]S(=O)(=O)C(F)(F)F)C(F)(F)F
CATEGORY: f
--
MOLECULE: CCOCC [diethyl ether] + COCC[N+]1(C)CCCC1.O=S(=O)([N-]S(=O)(=O)C(F)(F)F)C(F)(F)F
CATEGORY: t
--
MOLECULE: Cc1cccc(C)c1 [1,3-dimethylbenzene] + COCC[N+]1(C)CCCC1.O=S(=O)([N-]S(=O)(=O)C(F)(F)F)C(F)(F)F
CATEGORY: t

---

- ASSAY_NOTES: activity coefficient (dimensionless); of the first substance listed, at infinite dilution; xn = mol fraction of the nth substance listed
- RECORDED_CONDITIONS: 318.15 K; 101 kPa; Liquid; Chromatography; x1 = 0

MOLECULE: C1CCCCCC1 [cycloheptane] + COCC[N+]1(C)CCCC1.O=S(=O)([N-]S(=O)(=O)C(F)(F)F)C(F)(F)F
activity coefficient: 15.3

MOLECULE: c1ccsc1 [thiophene] + COCC[N+]1(C)CCCC1.O=S(=O)([N-]S(=O)(=O)C(F)(F)F)C(F)(F)F
activity coefficient: 0.885

MOLECULE: COC(C)(C)C [2-methoxy-2-methylpropane] + COCC[N+]1(C)CCCC1.O=S(=O)([N-]S(=O)(=O)C(F)(F)F)C(F)(F)F
activity coefficient: 2.76

MOLECULE: CCCC(=O)OC [methyl butanoate] + COCC[N+]1(C)CCCC1.O=S(=O)([N-]S(=O)(=O)C(F)(F)F)C(F)(F)F
activity coefficient: 1.29

---

- ASSAY_NOTES: activity coefficient (dimensionless); of the first substance listed, at infinite dilution; xn = mol fraction of the nth substance listed
- RECORDED_CONDITIONS: 318.15 K; 101 kPa; Liquid; Chromatography; x1 = 0
Values of activity coefficient strictly less than 10 map to YES, and values of at least 10 map to NO.

MOLECULE: CCC(=O)OC [methyl propanoate] + COCC[N+]1(C)CCCC1.O=S(=O)([N-]S(=O)(=O)C(F)(F)F)C(F)(F)F
CATEGORY: YES
--
MOLECULE: C#CCCCCC [1-heptyne] + COCC[N+]1(C)CCCC1.O=S(=O)([N-]S(=O)(=O)C(F)(F)F)C(F)(F)F
CATEGORY: YES
--
MOLECULE: CCCCCCCCC [nonane] + COCC[N+]1(C)CCCC1.O=S(=O)([N-]S(=O)(=O)C(F)(F)F)C(F)(F)F
CATEGORY: NO
--
MOLECULE: CCC(C)(C)OC [2-methoxy-2-methylbutane] + COCC[N+]1(C)CCCC1.O=S(=O)([N-]S(=O)(=O)C(F)(F)F)C(F)(F)F
CATEGORY: YES
--
MOLECULE: CCCCCC [hexane] + COCC[N+]1(C)CCCC1.O=S(=O)([N-]S(=O)(=O)C(F)(F)F)C(F)(F)F
CATEGORY: NO
--
MOLECULE: CCOC(C)(C)C [2-ethoxy-2-methylpropane] + COCC[N+]1(C)CCCC1.O=S(=O)([N-]S(=O)(=O)C(F)(F)F)C(F)(F)F
CATEGORY: YES
--
MOLECULE: CC(C)CC(C)(C)C [2,2,4-trimethylpentane] + COCC[N+]1(C)CCCC1.O=S(=O)([N-]S(=O)(=O)C(F)(F)F)C(F)(F)F
CATEGORY: NO
--
MOLECULE: C1CCCCCCC1 [cyclooctane] + COCC[N+]1(C)CCCC1.O=S(=O)([N-]S(=O)(=O)C(F)(F)F)C(F)(F)F
CATEGORY: NO
--
MOLECULE: CCCCCCCCCC [decane] + COCC[N+]1(C)CCCC1.O=S(=O)([N-]S(=O)(=O)C(F)(F)F)C(F)(F)F
CATEGORY: NO
--
MOLECULE: C=C(C)c1ccccc1 [(1-methylethenyl)benzene] + COCC[N+]1(C)CCCC1.O=S(=O)([N-]S(=O)(=O)C(F)(F)F)C(F)(F)F
CATEGORY: YES
--
MOLECULE: CCCCO [butan-1-ol] + COCC[N+]1(C)CCCC1.O=S(=O)([N-]S(=O)(=O)C(F)(F)F)C(F)(F)F
CATEGORY: YES
--
MOLECULE: CC#N [acetonitrile] + COCC[N+]1(C)CCCC1.O=S(=O)([N-]S(=O)(=O)C(F)(F)F)C(F)(F)F
CATEGORY: YES
--
MOLECULE: CC(C)OC(C)C [diisopropyl ether] + COCC[N+]1(C)CCCC1.O=S(=O)([N-]S(=O)(=O)C(F)(F)F)C(F)(F)F
CATEGORY: YES

---

- ASSAY_NOTES: activity coefficient (dimensionless); of the first substance listed, at infinite dilution; xn = mol fraction of the nth substance listed
- RECORDED_CONDITIONS: 338.15 K; 101 kPa; Liquid; Chromatography; x1 = 0

COMPOUND: CCCOCCC [dipropyl ether] + COCC[N+]1(C)CCCC1.O=S(=O)([N-]S(=O)(=O)C(F)(F)F)C(F)(F)F
activity coefficient: 6.82
--
COMPOUND: CC(C)OC(C)C [diisopropyl ether] + COCC[N+]1(C)CCCC1.O=S(=O)([N-]S(=O)(=O)C(F)(F)F)C(F)(F)F
activity coefficient: 6.46
--
COMPOUND: CCC(C)CC [3-methylpentane] + COCC[N+]1(C)CCCC1.O=S(=O)([N-]S(=O)(=O)C(F)(F)F)C(F)(F)F
activity coefficient: 14.8
--
COMPOUND: C=CCCCCC [1-heptene] + COCC[N+]1(C)CCCC1.O=S(=O)([N-]S(=O)(=O)C(F)(F)F)C(F)(F)F
activity coefficient: 12.9
--
COMPOUND: CC(C)CO [2-methyl-1-propanol] + COCC[N+]1(C)CCCC1.O=S(=O)([N-]S(=O)(=O)C(F)(F)F)C(F)(F)F
activity coefficient: 2.2
--
COMPOUND: CC(C)CC(C)(C)C [2,2,4-trimethylpentane] + COCC[N+]1(C)CCCC1.O=S(=O)([N-]S(=O)(=O)C(F)(F)F)C(F)(F)F
activity coefficient: 23.7
--
COMPOUND: CC(C)=O [acetone] + COCC[N+]1(C)CCCC1.O=S(=O)([N-]S(=O)(=O)C(F)(F)F)C(F)(F)F
activity coefficient: 0.49
--
COMPOUND: CCOCC [diethyl ether] + COCC[N+]1(C)CCCC1.O=S(=O)([N-]S(=O)(=O)C(F)(F)F)C(F)(F)F
activity coefficient: 2.78
--
COMPOUND: CC(C)(C)O [2-methylpropan-2-ol] + COCC[N+]1(C)CCCC1.O=S(=O)([N-]S(=O)(=O)C(F)(F)F)C(F)(F)F
activity coefficient: 1.67
--
COMPOUND: C1CCOC1 [tetrahydrofuran] + COCC[N+]1(C)CCCC1.O=S(=O)([N-]S(=O)(=O)C(F)(F)F)C(F)(F)F
activity coefficient: 0.84
--
COMPOUND: CCc1ccccc1 [ethylbenzene] + COCC[N+]1(C)CCCC1.O=S(=O)([N-]S(=O)(=O)C(F)(F)F)C(F)(F)F
activity coefficient: 2.24
--
COMPOUND: CCCCCCCCCC [decane] + COCC[N+]1(C)CCCC1.O=S(=O)([N-]S(=O)(=O)C(F)(F)F)C(F)(F)F
activity coefficient: 68.1
--
COMPOUND: C#CCCCCC [1-heptyne] + COCC[N+]1(C)CCCC1.O=S(=O)([N-]S(=O)(=O)C(F)(F)F)C(F)(F)F
activity coefficient: 4.66
--
COMPOUND: CO [methanol] + COCC[N+]1(C)CCCC1.O=S(=O)([N-]S(=O)(=O)C(F)(F)F)C(F)(F)F
activity coefficient: 1.18
